# protocol_summary: solubility in water
# Type: physicochemical
# measurement_conditions: in water at room temperature; read-out: solubility
property_name: solubility

Consider the molecule CN(/N=C/C1=C(C(=O)O)N2C(=O)[C@@H](NC(=O)/C(=N\OCF)c3nsc(N)n3)C2SC1)C(=N)N1CCNCC1 (stereo partly shown) and give its measured solubility.
~100 mg/mL
